- tested system: T1, 4H491-bA
- T1 chain: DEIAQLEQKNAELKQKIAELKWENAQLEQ
- method summary: two-hybrid library CCNG1;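 further: natural log of median RNA to DNA barcode read ratio; higher means stronger binding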
Parameter interaction score: see the listing below.

[
  {
    "binder": "DKIAQLKQKIAELKQKNAELKWEIAQLEQ [4H2937-bA]",
    "interaction score": -0.0219
  },
  {
    "binder": "DKIAQLKQKIAELKQEIAELEWENAQLEQ [4H2883-bA]",
    "interaction score": -0.886
  },
  {
    "binder": "DEIAQLEQEIAELEQENAELEWENAQLEQ [4H19-bA]",
    "interaction score": -1.22
  },
  {
    "binder": "DKIQELKKKIEELERKIWELKKENQELER [4H2859-bH]",
    "interaction score": 1.08
  },
  {
    "binder": "DKIAQLKQKIAELKQKNAELKWKNAQLKQ [4H2944-bA]",
    "interaction score": -0.569
  }
]
